Test system: Klebsiella pneumoniae
experimental.conditions: Concentration 20 uM; ASSAY_TEST Inhibition of Bacterial Growth; detection method Absorption (OD600); MEDIA CAMHB; plate type 384well; NBS; CORNING #3640; time 18 hr
Description: Antibacterial activity against Klebsiella pneumoniae MDR ATCC 70063 (CO-ADD:GN_003); MIC in CAMBH media using NBS plates, by OD(600)
Measured potencies and affinities stand elsewhere.
readout.name: Inhibition (%)
Numbers only, in %.

Check out these entries, answers already filled in.
compound	Inhibition [%]
COC1OC2COC(c3ccccc3)OC2C(=O)C1NC(=O)c1ccccc1 (configuration not stated)	10.3
Cc1ccc(Nc2nnc(S)s2)cc1F	11.86
OCCN1CCSC1=S	16.39
OCC(O)C1OCOC(C(O)CO)C1O (configuration not stated)	8.21
OCCCCc1nccc2c1[nH]c1ccccc12	-0.62

Batch: Inhibition for all items listed.
1. O=C(O)/C(Cc1c[nH]nn1)=N\O
2. O=C(O)Cc1ccc(/N=N/c2c(O)c(C(=O)O)cc3ccccc23)cc1

Response:
[7.49, 11.34]

---

Hi there, I'd appreciate the recorded Inhibition for every entry that follows.
Tested on: Cryptococcus neoformans
experimental.conditions: Concentration 20 uM; ASSAY_TEST Inhibition of Fungal Growth; detection method Resazurin; Absorption (OD600-OD570); plate type 384well; NBS; CORNING #3640
Description: Antifungal activity against Cryptococcus neoformans H99 ATCC 208821 (CO-ADD:FG_002); MIC in YNB media using NBS plates, by Resazurin OD(600-570)
Entries with a potency or affinity are not part of this list.
One number for each entry, in %.

Check out these entries, answers already filled in.
compound	unit.symbol	numeric.result
Cn1c2c(sc1=O)CCC2	%	-0.94
CC1=CN2C(c3cccc([N+](=O)[O-])c3)=NON(c3ccc(C)cn3)C2C=C1 (stereo unspecified)	%	0.26
Cn1c(=O)c2nc(COc3ccc(C(C)(C)C)cc3)[nH]c2n(C)c1=O	%	-17.46

Batch: Inhibition for all items listed.
1. Nc1ccc(Nc2ccccc2)c(S(=O)(=O)O)c1
2. COc1cc2c(NCCCCCO)ncnc2c(OC)c1OC
3. CC(O)c1nc2c(c(=O)n(C)c(=O)n2C)n1C (stereo unspecified)

Response:
[17.91, -4.07, -6.24]

Batch: Inhibition for all items listed.
1. O[C@@H](c1cc(-c2ccc(C(F)(F)F)cc2)nc(C(F)(F)F)c1)[C@H]1CCCCN1
2. NC(=O)Nc1ccc(Nc2ccccc2)cc1
3. CC(C)COc1nc2c(c(=O)n(C)c(=O)n2C)n1C
4. NC(=O)C1=CC2C3C=CC2(O)C(=O)OC3O1 (stereo unspecified)
5. OC1COC(OCc2ccccc2)C(O)C1O (stereo unspecified)
6. CCCCCCC(C)OC(=O)c1ccccc1C(=O)O (stereo unspecified)

Response:
1: -3.44; 2: -3.95; 3: -14.97; 4: 2.22; 5: -6.82; 6: -16.02

Batch: Inhibition for all items listed.
1. NC(=O)NC1NC(=O)NC1=O (stereo unspecified) [ALLANTOIN]
2. CC(C)(C)C1=NN=C2c3ccccc3C(=O)C21 (stereo unspecified)
3. Cc1ccc(/N=N/c2c(O)c3ccccc3[nH]c2=O)c(S(=O)(=O)N(C)C)c1
4. COC1OC(O)C(NC(=O)C(F)(F)F)CC1O (stereo unspecified)
5. CCOC(=O)c1[nH]c(CO)c(C(=O)OCC)c1C

Response:
-7.8
-9.6
-5.24
-8.11
-4.6

---

Hi there, I'd appreciate the recorded Inhibition for every entry that follows.
Tested on: Staphylococcus aureus
experiment.description: Antibacterial activity against Staphylococcus aureus MRSA ATCC 43300 (CO-ADD:GP_020); MIC in CAMBH media using NBS plates, by Resazurin F(560/590)
Type: functional
experimental.conditions: Concentration 20 uM, ASSAY_TEST Inhibition of Bacterial Growth, detection method Resazurin, Fluorescence (ex560/em590), MEDIA CAMHB, plate type 384well, CORNING #3640, time 18 hr
Answers are plain numbers, in %.

Check out these entries, answers already filled in.
compound	readout.name	numeric.result
O=C1c2ccccc2C(O)(c2ccccc2)N1c1ccncc1 (stereo not drawn)	Inhibition	8.72
Cn1ncc2c(Nc3ccc(Br)cc3)nc(Nc3ccc(Br)cc3)nc21	Inhibition	3.19
CCCN=C(S)Nc1ccccc1	Inhibition	-20.14
O=C(Nc1ccc2ncccc2c1)Nc1ccc2ncccc2c1	Inhibition	9.01
CCOC(=O)Nc1c2ccccc2nc2ccccc12	Inhibition	6.28

Batch: Inhibition for all items listed.
1. CC(=O)OCCN1c2ccccc2Sc2cnccc21
2. c1ccc2sc(SCSc3nc4ccccc4s3)nc2c1

Response:
-12.23
-0.38

---

System: Staphylococcus aureus
experiment.description: Antibacterial activity against Staphylococcus aureus MRSA ATCC 43300 (CO-ADD:GP_020); MIC in CAMBH media using NBS plates, by Resazurin F(560/590)
Type: functional
experimental.conditions: Concentration 20 uM, ASSAY_TEST Inhibition of Bacterial Growth, detection method Resazurin, Fluorescence (ex560/em590), MEDIA CAMHB, plate type 384well, CORNING #3640, time 18 hr
readout.name: Inhibition (%)
Numbers only, in %.

Check out these entries, answers already filled in.
molecule	numeric.result
c1ccc2c(c1)[nH]c1c3ccccc3sc21	12.39
COC1=CC(C)C2CC3OC(O)CC4C(C)=C(OC)C(=O)C(C2(C)C1=O)C34C (stereo not given)	7.24
COc1ccccc1/C=C(\C#N)C(=O)O	12.51
CCNc1nn2ccccc2c1/C=C(/C#N)C(=O)OCC	10.32
CCCCC(=O)N1CCCC(C)C1 (stereo not given)	12.48
O=C(O)C1CCC(=O)N1C(=O)OCc1ccccc1 (stereo not given)	2.22
O=C(Nc1ccc(Cl)c(Cl)c1)c1ccc(Cl)c(Cl)c1	18.37
CCCn1cnc2c(Sc3c([N+](=O)[O-])ncn3C)nc(N)nc21	-2.1

Batch: Inhibition for all items listed.
1. Nc1n[nH]c(CO)n1.O=C(O)CO
2. COc1ccc(-c2cc3ccccc3[nH]2)cc1
3. COc1ccc(C(=O)Oc2cccnc2O)cc1
4. CCCCOc1ccc(Nc2cc(Cl)ccc2C(=O)O)cn1

Response:
4.42
28.13
-4.34
11.44

---

Tested on: Acinetobacter baumannii
experiment.description: Antibacterial activity against Acinetobacter baumannii ATCC 19606 (CO-ADD:GN_034); MIC in CAMBH media using NBS plates, by Resazurin F(560/590)
Format: functional
experimental.conditions: Concentration 20 uM, ASSAY_TEST Inhibition of Bacterial Growth, detection method Resazurin, Fluorescence (ex560/em590), MEDIA CAMHB, plate type 384well, CORNING #3640, time 18 hr
Hi there, I'd appreciate the recorded Inhibition for every entry that follows.
Give bare numbers, in %.

Batch: Inhibition for all items listed.
1. O=C(O)c1ccccc1-c1ccccc1C(=O)Nc1ccc2oc(=O)c3ccccc3c2c1
2. CC1(C)CCSC(/C=C/c2ccccc2)=N1
3. COc1cc(C(=O)OC(C)CN2CCOCC2)cc(OC)c1OC (configuration not stated)
4. Clc1ccc(/C=C/c2nc(Cl)c(-c3ccc(Cl)cc3)c(Cl)n2)cc1
5. Cc1nc([C@H]2CC[C@H]3[C@@H]4CCC5=CC(=O)CC[C@]5(C)[C@H]4CC[C@]23C)cs1
6. CN(C)S(=O)(=O)c1ccccc1N=C=S

Response:
1. -2.77
2. 13.91
3. 10.27
4. 11.58
5. 15.21
6. 5.01

---

Tested on: Klebsiella pneumoniae
experimental.conditions: Concentration 20 uM; ASSAY_TEST Inhibition of Bacterial Growth; detection method Absorption (OD600); MEDIA CAMHB; plate type 384well; NBS; CORNING #3640; time 18 hr
Potency and affinity values are given separately.
readout.name: Inhibition (%)
Answers are plain numbers, in %.

molecule	test.system	Inhibition / %
COc1cc(NC(=O)c2cc3ccccc3cc2O)c(OC)cc1Cl	Klebsiella pneumoniae	8.39
Cc1nc2ccc(Cl)cn2c1[N+](=O)[O-]	Klebsiella pneumoniae	13.85
CCC1=C(c2ccc(OC)cc2)CCC(C(=O)O)C1C (centres undefined)	Klebsiella pneumoniae	12.8

Batch: Inhibition for all items listed.
1. Nc1ccc2c(c1)Cc1cc(Cl)c(Cl)cc1-2
2. Nc1ccc(/N=N/c2ccccc2Cl)c(N)n1
3. COC(=O)Cc1[nH]c(O)nc1C(=O)OC
4. O=C(/C=C/c1cccnc1)/C=C/c1cccnc1
5. CC1(C)c2ccccc2-c2nc3ccccc3cc2C1O (centres undefined)
6. CCNC(=O)Oc1cccnc1O

Response:
1. 4.46
2. 18.4
3. 20.66
4. 20.07
5. 14.38
6. 5.97

Batch: Inhibition for all items listed.
1. O=C(O)/C=C\C(=O)Nc1nccs1
2. O=C(O)c1cccc2c1C(=O)c1cccc3snc-2c13
3. Nc1ccc(S(=O)(=O)NCC2CCCCO2)cc1 (centres undefined)
4. CCSc1ncc(CO)c(N)n1
5. C#CCCOC(=O)Nc1ccccc1

Response:
1: 25.17; 2: 2.89; 3: 16.22; 4: 10.1; 5: 4.67

---

System: Candida albicans
experimental.conditions: 20 µM
Description: Antifungal activity against Candida albicans ATCC 90028 (CO-ADD:FG_001); MIC in YNB media using NBS plates, by OD630
Entries with a potency or affinity are not part of this list.
Hi there, I'd appreciate the recorded Inhibition for every entry that follows.
Numbers only, in %.

Check out these entries, answers already filled in.
molecule	numeric.result
CCOC(=O)Cc1cc(=O)[nH]n(-c2ccccc2)c1=O	4.43
C=C(C)C(=O)Nc1ccc(NC(C)C)cc1	4.24
COc1ccc(C(=S)N2CCN(c3ccccc3Cl)CC2)cc1OC	6.76
NS(=O)(=O)c1ccc(NC(=S)NC(=O)c2ccco2)cc1	1.47
c1ccc(-n2ncc3cccnc32)cc1	-0.36

Batch: Inhibition for all items listed.
1. Cn1c(=O)c2c(ncn2CCOC(=O)C(C)(C)Oc2ccc(Cl)cc2)n(C)c1=O [THEOFIBRATE]
2. CC(=O)C1C=CC(C)(C(=O)O)C2C=C(C)C(=O)C(C)(O)C12 (stereo not given)
3. COC(=O)[C@H]1[C@H]2C[C@@H]3c4[nH]c5cc(OC)ccc5c4CCN3C[C@H]2C[C@@H](OC(=O)CC(C)=O)[C@@H]1OC
4. CN1CCN(C2=NCCO2)CC1

Response:
1. 0.53
2. 1.75
3. -0.86
4. 3.03
